B1: glmS ribozyme (parent)
chain: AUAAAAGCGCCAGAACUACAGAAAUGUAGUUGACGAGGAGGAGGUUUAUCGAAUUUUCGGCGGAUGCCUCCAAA

- Variants of: B1
- ASSAY_OVERVIEW: kcat; higher = faster cleavage; RNA array
- PARTICULARS: with glucosamine-6-phosphate
Variants at the floor of the assay were thinned out.
MEASUREMENT_KIND: kcat (s⁻¹)

INSERT INTO measurements (residue_codes, lt_gt_eq, recorded_number) VALUES
  ('AUAAAAGCGCCAUAACUACAGAAAUGUAGUUGACGAGGAGGAGGUGUAUCGAAUUUUCGGCGGAUGCCUCCAAA [G13U U46G]', '=', 0.000174),
  ('AUAAAAGCGCCAGAACUACAGAAAUGUAGUUGACGAGGAUGAGGGUUAUCGAAUUUUCGGCGGAUGCCUCCAAA [G40U U45G]', '=', 0.0012),
  ('AUAAAAGCGCCAGAACUACAGAAAUGUAGUUGACGAGGAGGAGGUUUAUCGAAUUUUUUGCGGAUGCCUCCAAA [C58U G59U]', '<', '1e-05'),
  ('AUAAAAGCGCCAGAGCUACAGAAAUGUAGUUGACGAGGAGGAGGUUGAUCGAAUAUUCGGCGGAUGCCUCCAAA [A15G U47G U55A]', '=', 0.0098),
  ('AUAAAAGCGCCAGAACUACAGAAAUGUAGUUUACGAGGACGAGGUUUAUCGAAUUUUCGGCGGAUGCCUCCAAA [G32U G40C]', '=', 0.000104),
  ('AUAAAAGCGCCAGAAAUACAGAAAUGUAGUUGACGAGGAGGAGGCUUAUCGAAUUUUCGGCGGAUGCCUCCAAA [C16A U45C]', '=', '9.45e-05'),
  ('AUAAAAGCGCCAGAACUACAGAAAUGUAGUUGACGAGGAGGAGGUUUAUCGAAUUGUAGGCGGAUGCCUCCAAA [U56G C58A]', '=', 0.000993),
  ('AUAAAAGCGCCAGCCCUACAGAAAUGUAGUUGACGAGGAGGAGGUUUAUCGAAUUUUCGGCGGAUGCCUCCAAA [A14C A15C]', '=', 0.00204),
  ('AUAAAAGCGCAAGAACUACAGAAAUGUAGUUGACGAGGAGGAGGUUUAUCGAAUUUUCGGCGGAUUCCUCCAAA [C11A G66U]', '<', '1e-05'),
  ('AUAAAAGCGCCAGAACUACAGAAAUGUAGUUGACGAGGAGGAGGUUGAUUGAAUUUUCGGCGGCUGCCUCCAAA [U47G C50U A64C]', '=', '1.3e-05'),
  ('AUAAAAGCGCCAGCACUACAGAAAUGUAGUUGACGACGAGGAGGUUUAUCGAAUUUUCGGCGGAUGCCUCCAAA [A14C G37C]', '<', '1e-05'),
  ('AUAAAAGCGCCAGAACUACAGAAAUGUAGUUGACGAGGAGGAGGUUUAGCGAGUUUUCGGCGGGUGACUCCAAA [U49G A53G A64G C67A]', '=', 0.000753),
  ('AUAAAAGCGCCACAACUACAGAAAUGUAGUUGACGAGGAGGAGGUUAAUCGAAUUUUCUGCGGAUGGCUCCAAA [G13C U47A G59U C67G]', '=', '1.81e-05'),
  ('AUAAAAGCGCCAGAACUACAGAAAUGUAGUUGACGAGGAGGAGGUCUAUCGAAUUUUCGGCGGAUGCCUUCAAA [U46C C70U]', '=', 0.00656),
  ('AUAAAAGCGCCAGAACUACAGAAAUGUAGUUGACGAGGAGGAGGUUUAUCUAAUUUUCGGCGGAUGCCGCCAAA [G51U U69G]', '=', '4.26e-05'),
  ('AUAAAAGCGCCAGAACUACAGAAAUGUAGUUGACGAGGAGGAGGUUUAUCGAAUUUUCUGCGGAUGCCGCCAAA [G59U U69G]', '=', '2.94e-05'),
  ('AUAAAAGCGCCAGUACUACAGAAAUGUAGUUGACGAGGAGGAGGUUUAUGGAAUUUUCGGCGGAUGCCUCCAAA [A14U C50G]', '=', 0.000106),
  ('AUAAAAUCGCCAGAACUACAGAAAUGUAGUUGACGAGCAGGAGGUUUAUCGAAUUUUCGGCGGAUGCCUCCAAA [G7U G38C]', '<', '1e-05'),
  ('AUAAAAGCGCCAGAACUACAGAAAUGUAGUUGACGAGGAGGAGGUUUAUCGAACUUUCGGCGGAUGCCUCCAAA [U54C]', '=', 0.0582),
  ('AUAAAAGCGCCAGGACUACAGAAAUGUAGUUGACGAGGAGGAGGUUUAUCGAAUUUUCGGCGGGUGCCUCCAAA [A14G A64G]', '=', 0.0806),
  ('AUAAAAGCGCCAGAACUACAGAAAUGUAUUUGACGAGGAGGAGGUUUAUCGAAAUUUCGGCGGAUGGCUCCAAA [G29U U54A C67G]', '=', '8.75e-05'),
  ('AUAAAAGCGCCAGAACUACAGAAAUGUACUUGACGAGGAGGAGGUUUAUCGAAUUUUCGGCGGAUGACUCUAAA [G29C C67A C71U]', '=', 0.0001);
